Below is a list of entries, each paired with its recorded EC50 value.
Target: human M2 receptor (Homo sapiens)
Experiment: Functional M2-GIRK1/4 activation test: allosteric potency (EC50) and efficiency
Settings: Receptor activity EC50, CHO-DUKX-M2-GIRK cells; acetylcholine at EC20; in some cases mean of two or more determinations

>  <Compound>
O=C(N[C@@H](C1CC1)C(F)(F)F)c1cn(-c2ncc(F)cc2F)c2nc(N3CCN(CCO)C3=O)ccc2c1=O [Example 167]

>  <Subject of test>
human M2 receptor (Homo sapiens)

>  <EC50, nM>
420

$$$$
>  <Compound>
CC[C@@H](NC(=O)c1cn(-c2ncc(F)cc2F)c2nc(N3CCCC(F)(F)C3)ccc2c1=O)C(F)(F)F [Example 72]

>  <Subject of test>
human M2 receptor (Homo sapiens)

>  <EC50, nM>
45

$$$$
>  <Compound>
CC1(NC(=O)c2cn(-c3ncc(F)cc3F)c3nc(N4C[C@@H](O)CC4=O)ccc3c2=O)CC(F)(F)C1 [Example 172]

>  <Subject of test>
human M2 receptor (Homo sapiens)

>  <EC50, nM>
1600

$$$$
>  <Compound>
CC1(C)C(=O)N(c2ccc3c(=O)c(C(=O)N[C@H](C4CC4)C(F)(F)F)cn(-c4ncc(F)cc4F)c3n2)C2(CC2)C1O (stereo partly shown) [Example 32]

>  <Subject of test>
human M2 receptor (Homo sapiens)

>  <EC50, nM>
400

$$$$

---

Overview of recorded Emax for various compounds
Biological target: human M2 receptor (Homo sapiens)
Sequence (P08172 1-466): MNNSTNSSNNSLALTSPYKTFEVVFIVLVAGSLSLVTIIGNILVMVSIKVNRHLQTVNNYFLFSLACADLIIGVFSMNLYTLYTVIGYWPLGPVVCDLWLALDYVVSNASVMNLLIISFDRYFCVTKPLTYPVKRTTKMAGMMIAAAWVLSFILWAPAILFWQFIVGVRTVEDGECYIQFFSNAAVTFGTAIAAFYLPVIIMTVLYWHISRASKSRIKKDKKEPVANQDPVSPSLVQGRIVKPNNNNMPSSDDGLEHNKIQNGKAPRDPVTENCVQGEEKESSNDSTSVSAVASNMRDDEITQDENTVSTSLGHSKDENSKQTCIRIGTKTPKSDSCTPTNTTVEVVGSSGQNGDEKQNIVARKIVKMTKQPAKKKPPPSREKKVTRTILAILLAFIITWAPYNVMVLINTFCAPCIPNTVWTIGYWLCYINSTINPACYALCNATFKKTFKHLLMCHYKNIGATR
Experiment: Functional M2-GIRK1/4 activation test: allosteric potency (EC50) and efficiency
Settings: read-out: Efficiency, boosting of the acetylcholine effect at EC20 acetylcholine concentration; CHO-DUKX-M2-GIRK cells

>  <Compound>
CC(NC(=O)c1cn(-c2ncc(F)cc2F)c2nc(N3CCC(O)(CO)CC3)ccc2c1=O)C(F)(F)C(F)(F)F (single isomer, unassigned)

>  <Emax, %>
100

$$$$
>  <Compound>
CC[C@@H](NC(=O)c1cn(-c2ncc(F)cc2Cl)c2nc(N3C[C@@H](O)CC3=O)ccc2c1=O)C(F)(F)F

>  <Emax, %>
87

$$$$
>  <Compound>
CC[C@H](NC(=O)c1cn(-c2ncc(F)cc2F)c2nc(N3C(=O)C4(CC4)C(O)C3C)ccc2c1=O)C(F)(F)F (stereo partly shown)

>  <Emax, %>
97

$$$$
>  <Compound>
O=C(NC(c1c(F)cccc1F)C(F)(F)F)c1cn(-c2ncc(F)cc2F)c2nc(N3C[C@@H](O)CC3=O)ccc2c1=O (stereo partly shown)

>  <Emax, %>
94.5

$$$$
>  <Compound>
O=C(NC(c1ccc(Cl)cc1)C(F)(F)F)c1cn(-c2ncc(F)cc2F)c2nc(N3C[C@@H](O)CC3=O)ccc2c1=O (stereo partly shown)

>  <Emax, %>
100

$$$$
>  <Compound>
CCC(NC(=O)c1cn(-c2ncc(F)cc2F)c2nc(N3C[C@@H](O)CC3=O)ccc2c1=O)C(F)(F)C(F)(F)F (single isomer, unassigned) [Example 93]

>  <Emax, %>
98

$$$$
>  <Compound>
CCC(NC(=O)c1cn(-c2ncc(F)cc2F)c2nc(N3C[C@@H](O)[C@H](O)C3)ccc2c1=O)C(F)(F)C(F)(F)F (mixture of isomers) [Example 95]

>  <Emax, %>
100

$$$$
>  <Compound>
CC(C)(NC(=O)c1cn(-c2ncc(F)cc2F)c2nc(N3CCC(O)(CO)CC3)ccc2c1=O)C(F)(F)C(F)(F)F

>  <Emax, %>
100

$$$$
>  <Compound>
O=C(NC(C(F)(F)F)C(F)(F)F)c1cn(-c2ncc(F)cc2F)c2nc(N3CC4CC4(O)C3)ccc2c1=O (single isomer, unassigned) [Example 58]

>  <Emax, %>
96

$$$$
>  <Compound>
CC(NC(=O)c1cn(-c2ncc(F)cc2F)c2nc(N3C[C@@H](O)CC3=O)ccc2c1=O)C(F)(F)C(F)(F)F (mixture of isomers) [Example 76]

>  <Emax, %>
94

$$$$
>  <Compound>
O=C(N[C@@H](C1CC1)C(F)(F)F)c1cn(-c2ncc(F)cc2F)c2nc(N3C[C@H](O)[C@@H](O)C3)ccc2c1=O

>  <Emax, %>
100

$$$$
>  <Compound>
CC(C)(C)[C@@H](NC(=O)c1cn(-c2ncc(F)cc2F)c2nc(N3C[C@@H](O)CC3=O)ccc2c1=O)C(F)(F)F

>  <Emax, %>
100

$$$$
>  <Compound>
O=C(NC1(C(F)(F)F)CCC1)c1cn(-c2ncc(F)cc2F)c2nc(N3CCNC3=O)ccc2c1=O

>  <Emax, %>
88

$$$$

The reported numbers originate from patent US10519154B2.
